phosphorylation enrichment values for the sequences below.
# Tested on: Fer (mouse)
# assay.notes: phosphorylation enrichment, bacterial display (enrichment ratio); higher = better substrate or ligand; peptides without Tyr show the background
outcome.measure: phosphorylation enrichment

biosequence="CKSVHYDLVFL [COL22A1_Y37]" value_reported=9.46
biosequence="YRQLPYCPSVE [CTNND2_Y508_Q507P]" value_reported=0.804
biosequence="TTPGPHRSIYF [MPG_Y71_Y71H]" value_reported=0.396
biosequence="RSAGKDDVFLI [MECP2_Y120_Y120D_YF]" value_reported=0.511
biosequence="GEVLVYAEDPA [FLNA_Y319_V320A]" value_reported=0.385
biosequence="YLEKYYKFGCR [NNMT_Y25_S29C]" value_reported=0.55
biosequence="KGVDRYNPENL [EIF3K_Y21_I18V]" value_reported=0.311
biosequence="DFKIIYIAPMR [SNRNP200_Y540]" value_reported=0.447
biosequence="KQVEQYMSFHK [HCN1_Y417]" value_reported=0.413
biosequence="EIIPFYGMSSY [FNDC3B_Y175_T179S]" value_reported=0.933
biosequence="GIVKAYFVHAR [AIPL1_Y267_R270H_YF]" value_reported=0.481
biosequence="FESPRYLQVHI [FANCA_Y488]" value_reported=0.676
biosequence="KLVQLYDVCTK [BTK_Y461_G462D]" value_reported=2.56
biosequence="KQRSDYARELE [MYH3_Y1140]" value_reported=0.358
biosequence="AIGFEYSEINI [SIGLEC12_Y588_YF]" value_reported=3.84
biosequence="CTLLPYYSAPV [DGKE_Y269_R273P]" value_reported=2.17
biosequence="AVNNFYAAKKT [CCDC178_Y422_D420N]" value_reported=0.369
biosequence="LKKLEYLNLAL [LRRC6_Y70]" value_reported=0.549
biosequence="PKEQKYSFLQD [GH1_Y68_N73D]" value_reported=0.435
biosequence="TVFENYVADIE [RHOA_Y42]" value_reported=0.513

###

# measured.on: Grb2 SH2 (UniProt P62993)
# Sequence (P62993 whole entry, looked up): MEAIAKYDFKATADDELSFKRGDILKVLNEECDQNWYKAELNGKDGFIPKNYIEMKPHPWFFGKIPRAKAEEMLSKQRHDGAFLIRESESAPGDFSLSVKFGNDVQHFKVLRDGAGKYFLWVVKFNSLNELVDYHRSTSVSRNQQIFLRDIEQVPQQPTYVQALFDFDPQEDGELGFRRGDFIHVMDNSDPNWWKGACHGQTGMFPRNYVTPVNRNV
# assay.notes: SH2 binding enrichment of the phosphorylated peptide, bacterial display (enrichment ratio); higher = better substrate or ligand; peptides without Tyr show the background
Outcome: fulfilled for SH2 binding enrichment of at least 0.8; not fulfilled for anything lower.

biosequence="DEIPLYLKGGV [COX7A2_Y44]" category_label=fulfilled
biosequence="GQETSYIEDNC [PAH_Y24]" category_label=fulfilled
biosequence="TSAEGYQDVRD [ABLIM1_Y439_P434T]" category_label=fulfilled
biosequence="QLQQAYQEAFE [YWHAZ_Y149_S145L]" category_label=fulfilled
biosequence="ILGTFYETGSI [PAX2_Y73_R71T_YF]" category_label=fulfilled
biosequence="RASDFYSQQMA [GBP6_Y334_A331S_YF]" category_label="not fulfilled"
biosequence="EKLQKYFRQNP [EHHADH_Y682_YF]" category_label=fulfilled
biosequence="PYYASYPPSPD [GDAP2_Y491_T489A]" category_label="not fulfilled"
biosequence="SIIKDSFHRGA [GATM_Y203_Y203S]" category_label=fulfilled

###

# Tested on: c-Src
# assay.notes: phosphorylation enrichment, bacterial display (enrichment ratio); higher = better substrate or ligand; peptides without Tyr show the background
outcome.measure: phosphorylation enrichment

biosequence="GPSTPYTKSKR [SMARCC2_Y324]" value_reported=0.452
biosequence="EHTTLYSDNST [KANSL1_Y223_N225D]" value_reported=0.497
biosequence="MDQAEYQAKIQ [DHX58_Y518_R523Q]" value_reported=0.556
biosequence="PNKAVYTKMMT [G6PD_Y401_E398K]" value_reported=0.601
biosequence="ASTDYNKRGDF [PDHA1_Y243_Y243N]" value_reported=0.47
biosequence="YAFQLYDLDRD [CHP2_Y123]" value_reported=3.19
biosequence="AVNNFYAAKKT [CCDC178_Y422_D420N]" value_reported=0.463
biosequence="SVFNNYIQTLG [CTNND1_Y174_S171F]" value_reported=0.402
biosequence="EEGNPYFSGAR [MCCC2_Y520_S523G_YF]" value_reported=1.37
biosequence="SVVVPYEPTEV [TP53_Y220_P223T]" value_reported=0.482
biosequence="DHCNQYEQQKM [CHD7_Y75_Y72C]" value_reported=0.541
biosequence="SSSGGYGGGYG [KRT19_Y61_A60G]" value_reported=0.377
biosequence="QMWLKYSQSDL [SMC1A_Y714_R711W]" value_reported=0.668
biosequence="HFPFQCHRQLF [F12_Y53_Y53C_YF]" value_reported=0.692
biosequence="TPIYPYLLPKS [PLD2_Y580_T577I]" value_reported=0.624
biosequence="PELINYHQHNS [BTK_Y361]" value_reported=0.68
biosequence="ARMTNYGLPRF [TSPAN12_Y138_YF]" value_reported=0.519
biosequence="SSMIDYNTLEK [MYOC_Y479_P481T]" value_reported=0.401
biosequence="KLLPEYPGVLS [DHFR2_Y163]" value_reported=0.458
biosequence="NFATLHLKIFH [PDE6B_Y219_Y219H_YF]" value_reported=0.522
biosequence="QFLMKYVRSAS [ABCD1_Y337_W339R]" value_reported=0.799
biosequence="LHSDHYSPSGR [TMPRSS12_Y23_Y19H]" value_reported=0.503
biosequence="APGNAYGDAGF [SYP_Y250_D248N_YF]" value_reported=0.322
biosequence="GLRSFYETSKM [MAGED2_Y449_YF]" value_reported=0.437
biosequence="DSILVYQGKEQ [USH2A_Y1909]" value_reported=0.515
biosequence="KDQGGYTMHQD [MAPT_Y29]" value_reported=0.385
biosequence="HLTLVYGGIFL [FBP1_Y259_R255L]" value_reported=2.71
biosequence="QQLDKYQELLD [LMNA_Y359_E358K]" value_reported=0.453
biosequence="LKGQVYILVRE [ASS1_Y359_G362V]" value_reported=0.334
biosequence="KDKLPYPFDDP [GPX2_Y125_YF]" value_reported=0.486
biosequence="SDFSSYARTSI [TERT_Y949_YF]" value_reported=0.506
biosequence="NRLTDYYEPLL [BBS10_Y536]" value_reported=1.33
biosequence="EKQLLYSENKT [FRK_Y132]" value_reported=0.616
biosequence="RPLVVYPWTQR [HBB_Y36_L32P]" value_reported=0.446
biosequence="FPRAWYRRSIA [KIAA1109_Y4272]" value_reported=0.477
biosequence="ATAKGYEPDAS [OTC_Y223_P220A]" value_reported=0.461
biosequence="VDSIEYEVASQ [SLC7A7_Y7_T5I]" value_reported=0.466
biosequence="IGERTYGQVYK [CDK13_Y716_G714R]" value_reported=6.07
biosequence="WKEREYEVVRD [CPS1_Y634_I632R]" value_reported=0.506
biosequence="RNAAEYLLSSG [ABL1_Y139]" value_reported=0.34
biosequence="QGLRLYRPHLP [BTK_Y617_A622P]" value_reported=0.419
biosequence="LITTLYISFLG [KCNQ1_Y267_G269S]" value_reported=1.56
biosequence="AAVLNYKAWRD [GRIN2A_Y737_G740W]" value_reported=0.396
biosequence="ILTLKYPIKHG [ACTA1_Y71_E74K]" value_reported=0.341
biosequence="DNQFAYLKAII [HNF4A_Y288_E285Q_YF]" value_reported=0.372
biosequence="PTDGVYVMPTV [MYO7A_Y1668_S1666G]" value_reported=7.86
biosequence="KRISCYEASYQ [PFKFB3_Y194]" value_reported=0.467
biosequence="IYRASYVPFAA [RBM47_Y541_G538R]" value_reported=0.681
biosequence="GGFNNYGFGND [HNRNPH3_Y159_YF]" value_reported=0.431
biosequence="AELVRYFMEHH [PTPN11_Y80_Q79R_YF]" value_reported=0.433
biosequence="RAIELYNDKEK [OTULIN_Y244]" value_reported=0.747
biosequence="AKLNIYKRKVE [VWA3B_Y918]" value_reported=0.4
biosequence="AQVDTYCRHNY [HLA-DRB1_Y107_A103Q]" value_reported=0.369
biosequence="ALAHKYQGGGG [HBB_Y146_H147Q]" value_reported=0.491
biosequence="GYEEAYSVFKK [PAFAH1B1_Y28]" value_reported=4.68
